experiment: qHTS for Inhibitors of human tyrosyl-DNA phosphodiesterase 1 (TDP1): qHTS in cells in presence of CPT; conditions: chicken DT40 Tdp1-/-;hTDP1 cells + 20 nM CPT, ATP luminescence, 48 h; series mostly up to 46.2 µM; also: % is scaled to controls: 0 for no effect and ±100 for the full control effect; nearly all actives have a fitted effect of over 55% in size
About 50,000 (12%) of roughly 420,000 compounds were called active. Roughly 26% stayed inconclusive and do not appear here. Calls follow the shape of the dose curve; as a rule, active = well fitted inhibition curve with a large enough effect; inconclusive = small, poorly fitted or top-dose-only effect; inactive = flat fitted curve, though single readings scatter. The list comes from a sample in which actives are over-represented; it also holds close analogues and randomly drawn compounds.
Outcomes you can answer with include only these: class 1 for active, class 0 for inactive

// query # fetch the recorded call for COc1cccc(C(=O)NNS(=O)(=O)c2ccc(F)cc2)c1 here
// result class 0

// query Same read-out for COC(=O)c1ccc(NC(=O)CSc2nncc3ccc(OC)c(OC)c23)cc1 ?
// result class 0
